experiment: Plasma concentration in Gal/LPS induced mouse at 3 mg/kg, po for 1 hrs; assay type: ADME, organism-based
parameterMeasured: concentration at 1 h
// unit must come after the numeric part

Q: Would you kindly share the measured concentration at 1 h for O=C1c2ccc(Nc3ccc(F)cc3F)cc2CCc2ccc(OC[C@H](O)CO)cc21 [Skepinone-L] ?
A: 240 nM

---

target: CYP2C19 (Homo sapiens); assay: Inhibition of CYP2C19 (unknown origin) at 10 uM relative to control; format: ADME
Sequence (P33261 whole entry): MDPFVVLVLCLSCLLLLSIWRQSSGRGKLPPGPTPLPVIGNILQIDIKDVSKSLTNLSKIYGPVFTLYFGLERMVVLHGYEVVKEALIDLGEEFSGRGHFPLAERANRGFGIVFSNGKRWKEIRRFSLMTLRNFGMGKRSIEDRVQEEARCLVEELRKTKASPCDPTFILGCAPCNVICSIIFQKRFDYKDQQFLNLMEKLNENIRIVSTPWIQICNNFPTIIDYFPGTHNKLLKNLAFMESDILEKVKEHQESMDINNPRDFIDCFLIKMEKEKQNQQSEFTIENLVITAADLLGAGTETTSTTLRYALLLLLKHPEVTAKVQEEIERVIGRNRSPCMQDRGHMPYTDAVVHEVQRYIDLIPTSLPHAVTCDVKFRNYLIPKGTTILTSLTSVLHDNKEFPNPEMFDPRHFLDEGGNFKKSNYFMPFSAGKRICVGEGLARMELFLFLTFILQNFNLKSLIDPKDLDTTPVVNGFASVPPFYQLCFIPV
parameterMeasured: inhibition at 10 µM (%)
Report as a plain number; the unit % is understood.

Q: API: value(readout= inhibition at 10 µM, system= CYP2C19 (Homo sapiens), query= O=C1c2ccc(Nc3ccc(F)cc3F)cc2CCc2ccc(OC[C@H](O)CO)cc21 [Skepinone-L] )
A: 42
